These data points were gathered from PubChem BioAssay (Tox21).

Some molecules, each annotated with its measured activity change, positive = activation.
# Assay Method Text: qHTS assay to identify small molecule agonists of the estrogen related receptor (ERR) signaling pathway from Tox21 library (AID 1224849); also: % is scaled to controls: 0 for no effect and ±100 for the full control effect; nearly all actives have a fitted effect of over 15% in size
# Reported Conditions: ERR reporter cell line, ONE-Glo luciferase, 18 h; at 92.4 µM (top of the series) unless noted
Active and inactive are the calls of the source. Calls follow the shape of the full dose curve.

>  <Molecule>
CN1CCN(C2Cc3ccccc3Sc3ccc(Cl)cc32)CC1 (stereo not given)

>  <activity change, positive = activation>
-28.3% [at 42.5 µM] (inactive)

$$$$
>  <Molecule>
Cn1cccc1

>  <activity change, positive = activation>
-4.51% (inactive)

$$$$
>  <Molecule>
C/C=C/C(=O)Oc1c(CCCCCC(C)C)cc([N+](=O)[O-])cc1[N+](=O)[O-]

>  <activity change, positive = activation>
-62.8% (inactive)

$$$$

response.value for COc1cc(C=C2CCC/C(=C\c3ccc(O)c(OC)c3)C2=O)ccc1O (field: activity change, positive = activation) = -63.1% [at 42.5 µM] (inactive)

Reported activity change, positive = activation for CCCOc1sc(C(=O)N2CCC(c3cc(CN)ccc3F)CC2)c(C)c1Br was -71.6% (inactive)

---

# Experimental System: Nuclear receptor subfamily 1 group I member 2 (Homo sapiens)
# Assay Method Text: CYP3A4 induction through human pregnane X receptor (PXR) by small molecules, qHTS assay (AID 1346984); also: nearly all actives have a fitted effect of over 40% in size; as to activation: % is scaled to controls: 0 for no effect and ±100 for the full control effect
# Reported Conditions: DPX-2 HepG2 PXR, CYP3A4-luciferin luminescence, 24 h; series mostly up to 46.1 µM
Inconclusive results are not listed. Activity calls are given as the source filed them. The call rests on the fitted dose curve; in most records, active means well fitted activation curve with a large enough effect in the repeat runs; inconclusive means weak or mixed curves; inactive means no such curve, though single readings can be large or run the other way.
// one of TRUE for active, FALSE for inactive, no free text

Worked set:
>  <Molecule>
CC(C)N=C(N)/N=C(\N)Nc1ccc(Cl)cc1

>  <Class Label>
FALSE

$$$$
>  <Molecule>
CCCCCCCCCCCCCCNCCO

>  <Class Label>
FALSE

$$$$
>  <Molecule>
CC(=O)Oc1ccc(C2(c3ccc(OC(C)=O)cc3)C(=O)Nc3ccccc32)cc1

>  <Class Label>
FALSE

$$$$

Continue with the molecule presented below.
Prompt: Dear all, I need the recorded test outcome for COc1cccc(CCc2ccccc2OCC(CN(C)C)OC(=O)CCC(=O)O)c1 (centres undefined) , thank you.
Completion: TRUE

---

# Assay Method Text: qHTS assay to identify small molecule agonists of the estrogen receptor beta (ER-beta) signaling pathway - cell viability counter screen (AID 1259380); also: nearly all actives have a fitted effect of over 30% in size; also: potency is read from the fitted curve at half-maximal effect
# Reported Conditions: ER-beta-bla HEK293T viability, CellTiter-Glo luminescence, 16 h; series mostly up to 92.4 µM
Inconclusive results are not listed. Calls of active or inactive are those of the source. Calls follow the shape of the dose curve; as a rule, active = well fitted cell-killing curve with a large enough effect in the repeat runs; inconclusive = weak or mixed curves, or effect the other way; inactive = flat fitted curve, though single readings scatter.
Endpoint Label: Potency

Use these answered entries as a reference point.
>  <Compound>
Cc1cc(Nc2ccc(O)cc2)ccc1N

>  <Potency>
27.2 µM (active)

$$$$
>  <Compound>
CCCCCCOc1cc(C)c(O)c(C)c1C

>  <Potency>
55.1 µM (active)

$$$$
>  <Compound>
Clc1ccc(C(Cn2ccnc2)OCc2ccsc2Cl)c(Cl)c1 (configuration not stated)

>  <Potency>
23.7 µM (active)

$$$$
>  <Compound>
C=CCCCCCCC=C

>  <Potency>
inactive

$$$$
>  <Compound>
CCCCCCCC(OC)OC

>  <Potency>
inactive

$$$$

For reference, reported Potency for C=C[C@](C)(O)CC[C@@H]1[C@@]2(C)CCCC(C)(C)[C@@H]2CC[C@@]1(C)O stands at 48.6 µM (active)

The measured Potency associated with COc1cccc(CCc2ccccc2OCC(CN(C)C)OC(=O)CCC(=O)O)c1 (configuration not stated) reads 23.7 µM (active)

Notebook: C[C@@H]1CC[C@H]2C(C)(C)[C@H]3C[C@@]12CC[C@@]3(C)O , Potency read as inactive

Measured Potency, Clc1nc2ccccc2s1 : inactive

Reported Potency ( CCCCN(C)C ) = inactive

Potency measured on CC1=CCC(=O)O1 = inactive

Value of measured Potency for the entry Cn1cnc2ncnc(N)c21 : inactive

Potency recorded for this compound, CCCCC(CC)COC(=O)c1ccc(O)cc1 (configuration not stated) , is 61.1 µM (active)

Entry under test: COCC(=O)O[C@]1(CCN(C)CCCc2nc3ccccc3[nH]2)CCc2cc(F)ccc2[C@@H]1C(C)C . Its Potency was 21.1 µM (active)

Note to self: Potency recorded for Cc1c(C(=O)O)cccc1[N+](=O)[O-] was inactive

Entry COc1cc(C(=O)NS(=O)(=O)c2ccccc2C)ccc1Cc1cn(C)c2ccc(NC(=O)OC3CCCC3)cc12 ; Potency = 13.3 µM (active)

Consider O=C(O)CC(=O)O . Its measured Potency is inactive

---

# Assay Method Text: A CellTox Green Cytotoxicity Assay to monitor cytotoxicity in HEK293 cells - 40 hour (AID 1224871); also: nearly all actives have a fitted effect of over 45% in size
# Reported Conditions: CellTox Green fluorescence; series mostly up to 76.8 µM
Results filed as inconclusive are left out. Active and inactive are the calls of the source. The call rests on the fitted dose curve; in most records, active means well fitted activation curve with a large enough effect in the repeat runs; inconclusive means weak or mixed curves; inactive means flat fitted curve, though single readings scatter.
// one of t = active, f = inactive, no free text

Past entries and their recorded results:
>  <Compound>
CCN(CC)CCOc1ccc(C(O)(Cc2ccc(Cl)cc2)c2ccc(C)cc2)cc1 (centres undefined)

>  <Class Label>
t

$$$$
>  <Compound>
O=C1NC2CCCCN2C12CCN(CCCN1c3ccccc3CCc3ccc(Cl)cc31)CC2 (centres undefined)

>  <Class Label>
t

$$$$
>  <Compound>
CC(O)C#CC(C)O (centres undefined)

>  <Class Label>
t

$$$$
>  <Compound>
C=CC(C)C#N (centres undefined)

>  <Class Label>
f

$$$$
>  <Compound>
COC(=O)CC#N

>  <Class Label>
f

$$$$

Prompt: Please indicate how the test categorized Cc1ccc(-n2[nH]c(C)c(N=Nc3cccc(-c4cccc(C(=O)O)c4)c3O)c2=O)cc1C .
Completion: f

Prompt: Recorded test outcome, item O=C(O)CC(=O)O
Completion: f

Prompt: Just curious, what result did CC1CNCC(C)O1 (centres undefined) get here?
Completion: f

Prompt: What did this assay record as the result for Clc1cccnc1 ?
Completion: f

---

# Assay Method Text: qHTS assay to identify small molecule antagonists of the androgen receptor (AR) signaling pathway - cell viability counter screen (AID 743033; also: % is scaled to controls: 0 for no effect and ±100 for the full control effect; nearly all actives have a fitted effect of over 45% in size)
# Reported Conditions: AR-bla HEK293 viability, CellTiter-Glo luminescence, 16 h; series mostly up to 58.5 µM
# Text: National Center for Advancing Translational Sciences [NCATS] NIH Chemical Genomics Center [NCGC] U.S. Environmental Protection Agency [EPA] National Institutes of Environmental Health Sciences [NIEHS] National Toxicology Program [NTP] U.S. Food and Drug Administration [FDA] Androgen receptor (AR), a nuclear hormone receptor, plays a critical role in AR-dependent prostate cancer and other androgen related diseases. […]
Records with an inconclusive call do not appear. Active and inactive are the calls of the source. The call rests on the fitted dose curve; in most records, active means well fitted cell-killing curve with a large enough effect in the repeat runs; inconclusive means weak or mixed curves; inactive means no such curve, though single readings can be large or run the other way.
Endpoint Label: outcome

>  <Smiles Notation>
O=C(O)CCCCCCC(=O)O

>  <Endpoint Label>
outcome

>  <Value Observed>
inactive

$$$$
>  <Smiles Notation>
Cn1cnc2ncnc(N)c21

>  <Endpoint Label>
outcome

>  <Value Observed>
inactive

$$$$
>  <Smiles Notation>
C[Si](C)(C)Cl

>  <Endpoint Label>
outcome

>  <Value Observed>
inactive

$$$$

---

# Assay Method Text: qHTS assay for small molecule disruptors of the mitochondrial membrane potential - cell viability (AID 720634);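 also: human HepG2 liver cancer cells; % is scaled to controls: 0 for no effect and ±100 for the full control effect; nearly all actives have a fitted effect of over 20% in size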
# Reported Conditions: HepG2 viability, ATP luminescence (CellTiter-Glo), 1 h; series mostly up to 83.2 µM
Results filed as inconclusive are left out. The source made the active and inactive calls. The call rests on the fitted dose curve.
Hi! Could you answer with just one of these? active, inactive

Look over these answered cases.
>  <Compound>
COc1cc(C(=O)NS(=O)(=O)c2ccccc2C)ccc1Cc1cn(C)c2ccc(NC(=O)OC3CCCC3)cc12

>  <Class Label>
inactive

$$$$
>  <Compound>
C=CC(=C)CCC=C(C)C

>  <Class Label>
inactive

$$$$

Prompt: Assay result, entry CN1CCN(C2Cc3ccccc3Sc3ccc(Cl)cc32)CC1 (stereo not drawn) — outcome?
Completion: inactive

Prompt: How was c1cc(OCC2CO2)cc(OCC2CO2)c1 (stereo not drawn) classified in this test?
Completion: inactive

Prompt: Each compound tested received a call. Report the one for CCCSS/C(CCO)=C(\C)N(C=O)Cc1cnc(C)nc1N .
Completion: inactive

---

# Assay Method Text: qHTS assay to identify small molecule antagonists of the sonic hedgehog signaling (Shh) pathway - cell viability counter screen (AID 1259367); also: nearly all actives have a fitted effect of over 55% in size; also: potency is read from the fitted curve at half-maximal effect
# Reported Conditions: NIH/3T3 Gli1-Luc viability, CellTiter-Fluor, 24 h; series mostly up to 92.4 µM
Results filed as inconclusive are left out. Active and inactive are the calls of the source. Calls come from the whole dose curve; as a rule, active = well fitted cell-killing curve with a large enough effect in the repeat runs; inconclusive = weak or mixed curves, or effect the other way; inactive = no such curve, though single readings can be large or run the other way.

>  <Molecule>
CC(C)=CCCC(C)CCOC(=O)C(C)C (centres undefined)

>  <Potency>
inactive

$$$$
>  <Molecule>
COc1ccc(-n2nc(CCC(=O)N(C)O)cc2-c2ccc(Cl)cc2)cc1

>  <Potency>
inactive

$$$$
>  <Molecule>
O=C1OC(=O)c2ccc3c4c(ccc1c24)C(=O)OC3=O

>  <Potency>
inactive

$$$$
>  <Molecule>
CC1CCCNC1 (centres undefined)

>  <Potency>
42.4 µM (active)

$$$$
